Source listed as patent US20240246918A1.

- Test system: COLO 205 colorectal tumor cells
- assay_explanation: Tumor cell viability inhibition assay (CellTiter-Glo 2.0, 72 hours)
- Format: cell-based
- assay_conditions: Homo sapiens, COLO 205, 72 h, COLO 205 cell viability
pIC50: −log10 of the molar value.
Parameter pIC50: see the listing below.

Examples from the recorded data:
Req: Provide the documented pIC50 with COLO 205 colorectal tumor cells as the system for Cc1nc2c(c(=O)n1CC#Cc1ccc(Cl)cc1-c1ccnc3c(C(=O)NS(C)(=O)=O)csc13)CC(N1CCCCC1)CC2 (single isomer, unassigned)
Resp: > 5.30

Req: Now the same for Cc1cc(-c2cc(Cl)ccc2OCCn2c(C)nc3c(c2=O)CC(N2CCc4cccnc4C2)CC3)c2scc(C(=O)O)c2n1 (centres unmarked)
Resp: > 5.30

Req: Now the same for Cc1cc(-c2cc(Cl)ccc2OCCn2c(C)nc3c(c2=O)C[C@H](NC24CC5CC(CC(C5)C2)C4)CC3)c2scc(C(=O)O)c2n1 (single isomer, unassigned)
Resp: > 5.30

Req: Now the same for Cc1cc(-c2cc(Cl)ccc2OCCn2c(C)nc3c(c2=O)CC(N2CC4CCC(C4)C2)CC3)c2scc(C(=O)O)c2n1 (centres unmarked)
Resp: > 5.30

Now look at this entry.
Req: Provide the documented pIC50 with COLO 205 colorectal tumor cells as the system for Cc1cc(-c2cc(Cl)ccc2OCCn2c(C)nc3c(c2=O)C[C@@H](N2[C@@H]4CC[C@H]2C[C@H](OC(F)(F)F)C4)CC3)c2scc(C(=O)O)c2n1 (single isomer, unassigned)
Resp: 4.70 to 5.30

* * *

- subject_of_test: human eIF4E protein (Homo sapiens)
- Sequence (P06730 whole entry): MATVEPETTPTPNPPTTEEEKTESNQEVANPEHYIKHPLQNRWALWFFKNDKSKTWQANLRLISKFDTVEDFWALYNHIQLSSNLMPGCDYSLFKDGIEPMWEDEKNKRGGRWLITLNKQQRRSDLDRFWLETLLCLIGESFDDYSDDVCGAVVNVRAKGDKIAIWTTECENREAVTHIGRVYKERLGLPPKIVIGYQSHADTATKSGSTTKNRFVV
pIC50: −log10 of the molar value.
Parameter pIC50: see the listing below.

Examples from the recorded data:
Req: Provide the documented pIC50 with human eIF4E protein (Homo sapiens) as the system for Cc1cc(-c2cc(Cl)ccc2OCCn2c(C)nc3c(c2=O)CC(N2C[C@@H]4CC(F)(F)C[C@@H]4C2)CC3)c2scc(C(=O)O)c2n1 (some centres unmarked)
Resp: > 7.00

Req: Now the same for Cc1sc2c(-c3cc(Cl)ccc3OCCn3c(C)nc4c(c3=O)CC(N(C)C3CC3)CC4)cn(C)c(=O)c2c1C(=O)O (single isomer, unassigned)
Resp: 6.30 to 7.00

Req: Now the same for CO[C@@H]1CCN([C@@H]2CCc3nc(C)n(CCOc4ccc(Cl)cc4-c4cc(C)nc5c(C(=O)O)csc45)c(=O)c3C2)CC1(C)C (single isomer, unassigned)
Resp: > 7.00

Req: Now the same for Cc1cc(-c2cc(Cl)ccc2OCCn2c(C)nc3c(c2=O)C[C@@H](N2CC[C@@H](OC(F)(F)F)C2)CC3)c2scc(C(=O)O)c2n1 (single isomer, unassigned)
Resp: > 7.00

Others:
Req: Provide the documented pIC50 with human eIF4E protein (Homo sapiens) as the system for Cc1cc(-c2cc(Cl)ccc2OCCn2c(C)nc3c(c2=O)CC(N(C)Cc2cnccn2)CC3)c2scc(C(=O)O)c2n1 (centres unmarked)
Resp: > 7.00

Req: Now the same for Cc1cc(-c2cc(Cl)ccc2OCCn2c(C)nc3c(c2=O)CC(N2CCN(C)CC2)CC3)c2scc(C(=O)O)c2n1 (centres unmarked)
Resp: > 7.00

Req: Now the same for Cc1cc(-c2cc(Cl)ccc2OCCn2c(C)nc3c(c2=O)CC(N2CCC(c4ccc(F)cc4)CC2)CC3)c2scc(C(=O)O)c2n1 (centres unmarked)
Resp: > 7.00

Req: Now the same for Cc1cc(-c2cc(Cl)ccc2OCCn2c(C)nc3c(c2=O)C[C@@H](N2C[C@@H]4CC[C@H]2CC4OC(F)(F)F)CC3)c2scc(C(=O)O)c2n1 (single isomer, unassigned)
Resp: > 7.00

Req: Now the same for Cc1cc(-c2cc(Cl)ccc2OCCn2c(C)nc3c(c2=O)CC(N2CC4CC(C2)C4(F)F)CC3)c2scc(C(=O)O)c2n1 (single isomer, unassigned) [Compound 361]
Resp: > 7.00

Req: Now the same for Cc1cc(-c2cc(Cl)ccc2OCCn2c(C)nc3c(c2=O)CC(N(C)Cc2ccncc2)CC3)c2scc(C(=O)O)c2n1 (centres unmarked)
Resp: > 7.00

Req: Now the same for Cc1cc(-c2cc(Cl)ccc2OCCn2c(C)nc3c(c2=O)C[C@@H](N2[C@@H]4CC[C@H]2C[C@H](OC(F)(F)F)C4)CC3)c2scc(C(=O)O)c2n1 (single isomer, unassigned)
Resp: 6.30 to 7.00

* * *

Parameter pIC50: see the listing below.
- System: COLO 205 colorectal tumor cells
- assay_explanation: Tumor cell viability inhibition assay (CellTiter-Glo 2.0, 72 hours)
- Assay type: cell-based
- assay_conditions: Homo sapiens, COLO 205, 72 h, COLO 205 cell viability
pIC50: −log10 of the molar value.

Examples from the recorded data:
Req: Which pIC50 is reported for this compound? Cc1cc(-c2cc(Cl)ccc2OCCn2c(C)nc3c(c2=O)CC(N(CC(F)(F)F)C2CC2)CC3)c2scc(C(=O)NS(C)(=O)=O)c2n1 (single isomer, unassigned) [Compound 308]
Resp: 4.70 to 5.30

Req: Now the same for Cc1cc(-c2cc(Cl)ccc2OCCn2c(C)nc3c(c2=O)C[C@@H](N2CCC(c4ncco4)CC2)CC3)c2scc(C(=O)O)c2n1 (single isomer, unassigned) [Compound 461]
Resp: > 5.30

Req: Now the same for Cc1cc(-c2cc(Cl)ccc2OCCn2c(C)nc3c(c2=O)CC(N(C)C2(c4ccc(F)cc4)CC2)CC3)c2scc(C(=O)O)c2n1 (single isomer, unassigned) [Compound 280]
Resp: 4.70 to 5.30

Req: Now the same for Cc1nc2c(c(=O)n1CC#Cc1ccc(Cl)cc1-c1ccnc3c(C(=O)O)csc13)CC(N(C)C1CCN(CC(F)(F)F)CC1)CC2 (stereo not drawn) [Compound 275]
Resp: > 5.30

Req: Now the same for Cc1cc(-c2cc(Cl)ccc2OCCn2c(C)nc3c(c2=O)CC(N2CC(F)(F)C2)CC3)c2sccc2n1 (single isomer, unassigned) [Compound 340]
Resp: < 4.70

Req: Now the same for Cc1nc2c(c(=O)n1CC#Cc1ccc(Cl)cc1-c1ccnc3c(C(=O)NS(C)(=O)=O)csc13)CC(N1CC(F)(F)C1)CC2 (single isomer, unassigned) [Compound 331]
Resp: 4.70 to 5.30

Req: Now the same for Cc1cc(-c2cc(Cl)ccc2OCCn2c(C)nc3c(c2=O)CC(N(C)CCOC(F)(F)F)CC3)c2scc(C(=O)O)c2n1 (stereo not drawn) [Compound 41]
Resp: > 5.30

Req: Now the same for Cc1cc(-c2cc(Cl)ccc2OCCn2c(C)nc3c(c2=O)CC(N(C)C2(C(F)(F)F)CC2)CC3)c2scc(C(=O)O)c2n1 (stereo not drawn) [Compound 265]
Resp: < 4.70

Req: Now the same for Cc1cc(-c2cc(Cl)ccc2OCCn2c(C)nc3c(c2=O)C[C@H](N2C[C@H]4CC[C@@H]2CC4OC(F)(F)F)CC3)c2scc(C(=O)O)c2n1 (single isomer, unassigned) [Compound 499]
Resp: > 5.30

Req: Now the same for Cc1csc(CN(C)C2CCc3nc(C)n(CCOc4ccc(Cl)cc4-c4cc(C)nc5c(C(=O)O)csc45)c(=O)c3C2)n1 (stereo not drawn) [Compound 182]
Resp: > 5.30

Others:
Req: Which pIC50 is reported for this compound? COC1CCN(C2CCc3nc(C)n(CCOc4ccc(Cl)cc4-c4cc(C)nc5c(C(=O)O)csc45)c(=O)c3C2)CC1 (stereo not drawn) [Compound 12]
Resp: > 5.30

Req: Now the same for Cc1cc(-c2cc(Cl)ccc2OCCn2c(C)nc3c(c2=O)CC(N(C)C2CC2)CC3)c2c(n1)c(C(=O)O)cn2C (stereo not drawn) [Compound 277]
Resp: < 4.70

Req: Now the same for Cc1cc(-c2cc(Cl)ccc2OCCn2c(C)nc3c(c2=O)C[C@@H](N2C[C@H]4CCC(F)(F)[C@H]4C2)CC3)c2scc(C(=O)O)c2n1 (single isomer, unassigned) [Compound 168]
Resp: > 5.30

Req: Now the same for Cc1cc(-c2cc(Cl)ccc2OCCn2c(C)nc3c(c2=O)CC(N2CCC(CC(F)(F)F)CC2)CC3(C)C)c2scc(C(=O)O)c2n1 (single isomer, unassigned) [Compound 492]
Resp: > 5.30

Req: Now the same for Cc1cc(-c2cc(Cl)ccc2OCCn2c(C)nc3c(c2=O)CC(N2CCN(CC(F)(F)F)CC2)CC3)c2scc(C(=O)O)c2n1 (stereo not drawn) [Compound 278]
Resp: > 5.30

Req: Now the same for Cc1cc(-c2cc(Cl)ccc2OCCn2c(C)nc3c(c2=O)C[C@@H](N2CC4(CCC(F)(F)CC4)C2)CC3)c2scc(C(=O)O)c2n1 (single isomer, unassigned) [Compound 128]
Resp: > 5.30

Req: Now the same for Cc1cc(-c2cc(Cl)ccc2OCCn2c(C)nc3c(c2=O)C[C@H](N2CC[C@H](OC(F)(F)F)C(C)(C)C2)CC3)c2scc(C(=O)O)c2n1 (single isomer, unassigned) [Compound 394]
Resp: > 5.30

Req: Now the same for Cc1csc([C@H]2CCCN([C@@H]3CCc4nc(C)n(CCOc5ccc(Cl)cc5-c5cc(C)nc6c(C(=O)O)csc56)c(=O)c4C3)C2)n1 (single isomer, unassigned) [Compound 483]
Resp: > 5.30

Req: Now the same for Cc1cc(-c2cc(Cl)ccc2OCCn2c(C)nc3c(c2=O)C[C@H](N2CCC[C@@H](c4ncccc4F)C2)CC3)c2scc(C(=O)O)c2n1 (single isomer, unassigned) [Compound 465]
Resp: > 5.30

Req: Now the same for Cc1cc(-c2cc(Cl)ccc2OCCn2c(C)nc3c(c2=O)C[C@@H](N2CC[C@@H](OC(F)(F)F)C(C)(C)C2)CC3)c2scc(C(=O)O)c2n1 (single isomer, unassigned) [Compound 393]
Resp: 4.70 to 5.30

Req: Now the same for CO[C@@H]1CCN([C@@H]2CCc3nc(C)n(CCOc4ccc(Cl)cc4-c4cc(C)nc5c(C(=O)O)csc45)c(=O)c3C2)C1 (single isomer, unassigned) [Compound 42]
Resp: > 5.30
